All figures here come from paper PMC10397247.

# test-system: T1, 4H2915-bN
# T1 chain: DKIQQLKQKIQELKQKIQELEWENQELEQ
# assay-overview: two-hybrid library CCNG1;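 further: natural log of median RNA to DNA barcode read ratio; higher means stronger binding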

[
  {
    "binder": "DKIQQLEQKNQELKQEIQELEWKNQELEQ [4H2503-bN]",
    "interaction score": -0.299
  },
  {
    "binder": "DEIQQLEQENQELEQKNQELEWKIQELKQ [4H182-bN]",
    "interaction score": 0.186
  },
  {
    "binder": "DKIQQLEQKNQELEQEIQELEWKIQELKQ [4H2438-bN]",
    "interaction score": 2
  },
  {
    "binder": "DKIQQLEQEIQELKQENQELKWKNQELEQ [4H2143-bN]",
    "interaction score": 0.491
  },
  {
    "binder": "DKIQQLEQKNQELEQKIQELKWEIQELEQ [4H2473-bN]",
    "interaction score": 0.258
  },
  {
    "binder": "DEIQQLEQEIQELKQKNQELKWEIQELEQ [4H121-bN]",
    "interaction score": -0.211
  },
  {
    "binder": "DKIQQLKQENQELEQEIQELEWENQELKQ [4H2692-bN]",
    "interaction score": -0.419
  },
  {
    "binder": "DKIQQLKQKIQELKQKIQELEWENQELEQ [4H2915-bN]",
    "interaction score": 0.918
  },
  {
    "binder": "DKIQQLEQEIQELKQENQELEWKIQELKQ [4H2134-bN]",
    "interaction score": -1.35
  },
  {
    "binder": "DKIQQLKQEIQELEQENQELKWENQELKQ [4H2588-bN]",
    "interaction score": 0.795
  },
  {
    "binder": "DKIQQLEQENQELEQKIQELKWKNQELEQ [4H2223-bN]",
    "interaction score": -1.33
  },
  {
    "binder": "DKIQQLKQENQELEQENQELKWKIQELEQ [4H2717-bN]",
    "interaction score": -0.6
  },
  {
    "binder": "DKIQQLKQKIQELEQENQELEWKNQELEQ [4H2839-bN]",
    "interaction score": 0.377
  }
]
